# tgt: T1, IL-23 (mouse, p19/p40 heterodimer) (Mus musculus, UniProt Q9EQ14;P43432 SEQ:22-196,SEQ:23-335)
# T1 sequence 1: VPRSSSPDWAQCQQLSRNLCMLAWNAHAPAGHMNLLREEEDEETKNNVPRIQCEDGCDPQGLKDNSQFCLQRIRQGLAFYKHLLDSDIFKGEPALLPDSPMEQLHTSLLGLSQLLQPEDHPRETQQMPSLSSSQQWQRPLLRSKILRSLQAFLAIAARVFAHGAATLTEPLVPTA
# T1 sequence 2: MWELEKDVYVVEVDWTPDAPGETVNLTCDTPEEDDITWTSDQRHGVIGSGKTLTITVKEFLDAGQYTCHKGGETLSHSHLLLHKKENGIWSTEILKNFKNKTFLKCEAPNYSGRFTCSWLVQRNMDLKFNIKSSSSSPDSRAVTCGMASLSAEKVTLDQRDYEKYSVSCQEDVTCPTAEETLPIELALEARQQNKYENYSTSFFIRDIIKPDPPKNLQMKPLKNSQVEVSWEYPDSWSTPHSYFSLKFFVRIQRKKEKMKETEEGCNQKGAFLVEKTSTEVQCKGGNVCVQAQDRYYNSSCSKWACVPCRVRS
# test.name: filter; 1X PBS, 0.1 mg/mL BSA, 30 min RT
# condition.context: tags: isolated in-house; label: 32P
quantity.kind: Kd (nM)
Please state the figure in nM; there is no need to write the unit.

Record excerpt, results attached:
• GGGCACUCAGCCACAGCUCGGUGGCUUAAUAUCUAUGUGAACGUGCCC (ssRNA, 2'-F all C and U (rRfY)) [ARC1633 minimer] = 25
• GGGCACUCAGCCACAGGUGGCUUAAUACUGUAAAGACGUGCCC (ssRNA, 2'-F all C and U (rRfY)) [ARC1739 (ARC1628 minimer)] = 1

Continue with the next binder.
Q: I'd like to know its Kd. The binder in question is GGGCACUCAGCCACCUUGGGCUUAAUACCUAUCGGAUGUGCCC (ssRNA, 2'-F all C and U (rRfY)) [ARC1634 minimer]
A: 19
